test system: H358 cells; test: Inhibition of KRas-mediated phosphorylation of ERK (Cisbio HTRF pERK), H358 cells; type: cell-based; details: Homo sapiens, NCI-H358, single point at 100 nM, 3 hrs compound incubation

{"compound": "Oc1cc(Cl)c(C2CC2)c(N2CCc3c(nc(OCC45CCCN4CCC5)nc3N3CCC[C@]4(C3)C[C@H](O)C4)C2)c1 [Example 440]", "inhibition at 0.1 µM (%)": -1}
{"compound": "CCc1c(F)ccc2cc(O)cc(N3CCc4c(nc(OC[C@@]56CCCN5C[C@H](F)C6)nc4N4CCCn5nc(C(=O)N6C[C@H](C)N[C@@H](C)C6)cc5C4)C3)c12 [Example 282]", "inhibition at 0.1 µM (%)": 88}
{"compound": "CCc1c(F)ccc2cc(O)cc(N3CCc4c(nc(OC[C@@]56CCCN5C[C@H](F)C6)nc4N4CCCn5nc(C(=O)N6CC7(CCCN7)C6)cc5C4)C3)c12 [Example 277]", "inhibition at 0.1 µM (%)": 64}
{"compound": "CCc1c(F)ccc2cc(O)cc(N3CCc4c(nc(OC[C@@]56CCCN5C[C@H](F)C6)nc4N4CCCn5nc(C(=O)N6[C@@H]7CNC[C@H]6C7)cc5C4)C3)c12 [Example 499]", "inhibition at 0.1 µM (%)": 57}
{"compound": "CCc1c(F)ccc2cc(O)cc(N3CCc4c(nc(OC[C@@]56CCCN5C[C@H](F)C6)nc4N4CCCn5nc(C(=O)N6CC7CC(C6)N(C)C7)cc5C4)C3)c12 (stereo partly drawn) [Example 500]", "inhibition at 0.1 µM (%)": 74}
{"compound": "CCc1c(F)ccc2cc(O)cc(N3CCc4c(nc(OC[C@@]56CCCN5C[C@H](F)C6)nc4N4CCCn5nc(C(=O)NC6CC6)cc5C4)C3)c12 [Example 384]", "inhibition at 0.1 µM (%)": 100}

###

biological target: KRas G12V (Homo sapiens, UniProt P01116, G12V); experiment: biochemical; settings: Binding to KRas (IC50 nM) G12V, TR-FRET displacement, KRas G12V
Sequence (P01116 1-169 isoform P01116-2 G12V): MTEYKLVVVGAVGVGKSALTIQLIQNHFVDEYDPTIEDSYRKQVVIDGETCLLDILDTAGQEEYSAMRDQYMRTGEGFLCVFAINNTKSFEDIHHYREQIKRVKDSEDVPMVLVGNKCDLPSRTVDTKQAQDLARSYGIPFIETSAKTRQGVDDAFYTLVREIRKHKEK
Each entry below carries its recorded IC50.

{"compound": "CCc1c(F)ccc2cc(O)cc(N3CCc4c(nc(OC[C@@]56CCCN5C[C@H](F)C6)nc4N4CCCC5(CC(=O)NC5=O)C4)C3)c12 (stereo partly drawn) [Example 419]", "assayed-target": "KRas G12V (Homo sapiens, UniProt P01116, G12V)", "quantity-unit": "nM", "qual": "<", "IC50": 2}
{"compound": "Cc1cc2[nH]ncc2c(N2CCc3c(nc(OCC45CCCN4CCC5)nc3N3CC4C(=O)NC(=O)C4C3)C2)c1C (stereo not drawn) [Example 458]", "assayed-target": "KRas G12V (Homo sapiens, UniProt P01116, G12V)", "quantity-unit": "nM", "qual": "=", "IC50": 76}
{"compound": "Cc1cc2[nH]ncc2c(N2CCc3c(nc(OC[C@@]45CCCN4C[C@H](F)C5)nc3N3CCC[C@]4(C3)NC(=O)NC4=O)C2)c1C [Example 450]", "assayed-target": "KRas G12V (Homo sapiens, UniProt P01116, G12V)", "quantity-unit": "nM", "qual": "=", "IC50": 3}

###

biological target: KRas G12R (Homo sapiens, UniProt P01116, G12R); test: biochemical; details: Binding to KRas (IC50 nM) G12R, TR-FRET displacement, KRas G12R
Sequence (P01116 1-169 isoform P01116-2 G12R): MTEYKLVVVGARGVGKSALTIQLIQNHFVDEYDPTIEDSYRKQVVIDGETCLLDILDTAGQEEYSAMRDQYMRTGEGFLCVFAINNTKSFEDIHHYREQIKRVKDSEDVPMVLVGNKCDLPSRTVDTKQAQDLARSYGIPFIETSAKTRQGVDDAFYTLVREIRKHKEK
measurement-type: IC50

{"compound": "CCc1c(NC)nn2c1CN(c1nc(OC[C@@]34CCCN3C[C@H](F)C4)nc3c1CCN(c1cc(O)cc4ccc(F)c(CC)c14)C3)CCC2", "measurement-type": "IC50", "reported-measurement": "3 nM"}
{"compound": "Cc1cc2[nH]ncc2c(N2CCc3c(nc(OCC45CCCN4CCC5)nc3N3CCCC4(C3)NC(=O)NC4=O)C2)c1C (stereo not drawn)", "measurement-type": "IC50", "reported-measurement": "11 nM"}
{"compound": "CCc1c(F)ccc2cc(O)cc(N3CCc4c(nc(OC[C@@]56CCCN5C[C@H](F)C6)nc4N4CCCCC(COCC(=O)N(C)C)C4)C3)c12 (stereo partly drawn)", "measurement-type": "IC50", "reported-measurement": "3 nM"}
{"compound": "CCc1c(F)ccc2cc(O)cc(N3CCc4c(nc(OC[C@@]56CCCN5C[C@H](F)C6)nc4N4CCCC5(CCNC5=O)C4)C3)c12 (stereo partly drawn)", "measurement-type": "IC50", "reported-measurement": "10 nM"}
{"compound": "CCc1c(F)ccc2cc(O)cc(N3CCc4c(nc(OC[C@@]56CCCN5C[C@H](F)C6)nc4N4CCCCn5nc(C(=O)N6CCOCC6)cc5C4)C3)c12", "measurement-type": "IC50", "reported-measurement": "< 2 nM"}
{"compound": "CCc1c(F)ccc2cc(O)cc(N3CCc4c(nc(OC[C@@]56CCCN5C[C@H](F)C6)nc4N4CCCn5nc(NC(C)=O)cc5C4)C3)c12", "measurement-type": "IC50", "reported-measurement": "3 nM"}
{"compound": "CN(C)C(=O)c1cc2n(n1)CCCN(c1nc(OC[C@@]34CCCN3C[C@H](F)C4)nc3c1CCN(c1cccc4cccc(Cl)c14)C3)C2", "measurement-type": "IC50", "reported-measurement": "57 nM"}
{"compound": "CCc1c(F)ccc2cc(O)cc(N3CCc4c(nc(OC[C@@]56CCCN5C[C@H](F)C6)nc4N4CCCC5(C4)NC(=O)NC5=S)C3)c12 (stereo partly drawn)", "measurement-type": "IC50", "reported-measurement": "9 nM"}
{"compound": "CCc1cccc2cccc(N3CCc4c(nc(OCC5(CN(C)C)CC5)nc4N(C)Cc4nnc5c(=O)n(C)ccn45)C3)c12", "measurement-type": "IC50", "reported-measurement": "687 nM"}
{"compound": "O=S1(=O)NCC2(CCCN(c3nc(OCC45CCCN4CCC5)nc4c3CCN(c3cc(O)cc(Cl)c3C3CC3)C4)C2)N1 (stereo not drawn)", "measurement-type": "IC50", "reported-measurement": "< 2 nM"}
{"compound": "CCNC(=O)c1nn2c(c1Cl)CN(c1nc(OC[C@@]34CCCN3C[C@H](F)C4)nc3c1CCN(c1cc(O)cc4ccc(F)c(CC)c14)C3)CCC2", "measurement-type": "IC50", "reported-measurement": "< 2 nM"}
{"compound": "CCc1c(F)ccc2cc(O)cc(N3CCc4c(nc(OC[C@@]56CCCN5C[C@H](F)C6)nc4N4CCCn5nc(C(=O)N6CC7COCC6C7)cc5C4)C3)c12 (stereo partly drawn)", "measurement-type": "IC50", "reported-measurement": "< 2 nM"}
{"compound": "CCc1c(F)ccc2cc(O)cc(N3CCc4c(nc(OC[C@@]56CCCN5C[C@H](F)C6)nc4N4CCCn5nc(CNC(=O)N(C)C)cc5C4)C3)c12", "measurement-type": "IC50", "reported-measurement": "5 nM"}
{"compound": "CCc1c(F)ccc2cc(O)cc(N3CCc4c(nc(OC[C@@]56CCCN5C[C@H](F)C6)nc4N4CCCn5nc(NC(C)C)cc5C4)C3)c12", "measurement-type": "IC50", "reported-measurement": "2 nM"}
{"compound": "CCc1c(F)ccc2cc(O)cc(N3CCc4c(nc(OC[C@]56CCCN5[C@H](COC(=O)N(C)C)CC6)nc4N4CCC[C@@](C)(O)C4)C3)c12", "measurement-type": "IC50", "reported-measurement": "2 nM"}
{"compound": "CCc1c(F)ccc2cc(O)cc(N3CCc4c(nc(OC[C@@]56CCCN5C[C@H](F)C6)nc4N4CCCCn5nc(C(=O)N(C)C)c(Br)c5C4)C3)c12", "measurement-type": "IC50", "reported-measurement": "< 2 nM"}
{"compound": "CCc1c(F)ccc2cc(O)cc(N3CCc4c(nc(OC[C@@]56CCCN5C[C@H](F)C6)nc4N4CCCn5nc(C(=O)N(C)C(C)C)cc5C4)C3)c12", "measurement-type": "IC50", "reported-measurement": "< 2 nM"}
{"compound": "CCc1c(F)ccc2cc(O)cc(N3CCc4c(nc(OC[C@@]56CCCN5C[C@H](F)C6)nc4N4CCCCC(COCC(=O)NC)C4)C3)c12 (stereo partly drawn)", "measurement-type": "IC50", "reported-measurement": "9 nM"}
{"compound": "CCc1c(F)ccc2cc(O)cc(N3CCc4c(nc(OC[C@@]56CCCN5C[C@H](F)C6)nc4N4CCCc5nc[nH]c5C4)C3)c12", "measurement-type": "IC50", "reported-measurement": "7 nM"}
{"compound": "CCc1c(F)ccc2cc(O)cc(N3CCc4c(nc(OC[C@@]56CCCN5C[C@H](F)C6)nc4N4CCCn5nc(C(=O)N6CCN(C)CC6)cc5C4)C3)c12", "measurement-type": "IC50", "reported-measurement": "< 2 nM"}
{"compound": "CCc1c(F)ccc2cc(O)cc(N3CCc4c(nc(OC[C@@]56CCCN5C[C@H](F)C6)nc4N4CCCCC(C(=O)N(C)C)C4)C3)c12 (stereo partly drawn)", "measurement-type": "IC50", "reported-measurement": "25 nM"}
{"compound": "CCc1c(F)ccc2cc(O)cc(N3CCc4c(nc(OC[C@@]56CCCN5C[C@H](F)C6)nc4N4CCCn5nc(N(C(C)C)S(C)(=O)=O)cc5C4)C3)c12", "measurement-type": "IC50", "reported-measurement": "773 nM"}
{"compound": "CCc1c(F)ccc2cc(O)cc(N3CCc4c(nc(OC[C@@]56CCCN5C[C@H](F)C6)nc4N4CCCn5nc(C(=O)N6CC7CCC(C7)C6)cc5C4)C3)c12", "measurement-type": "IC50", "reported-measurement": "< 2 nM"}
{"compound": "Cc1cc2[nH]ncc2c(N2CCc3c(nc(OC[C@@]45CCCN4C[C@H](F)C5)nc3N3CCC[C@]4(C3)NC(=O)NC4=O)C2)c1C", "measurement-type": "IC50", "reported-measurement": "3 nM"}

Cited source: patent US20250368649A1
